Tested on: MOLT-4 leukemia
Protocol Details: NCI tumour cell line growth inhibition, 48 h; in the data active = GI50 below about 0.43 µM; inactive = the rest
Outcome codes: active, inactive

[
  {
    "Compound": "C=CC(=O)Nc1cc(C)ccc1Nc1nc(Nc2cc(OC)ncc2C)ncc1C(F)(F)F",
    "Group": "inactive"
  },
  {
    "Compound": "COc1cc(C(=O)N2CCN(c3ncnc4ccccc34)CC2)c(N)cc1OCc1ccccc1",
    "Group": "inactive"
  },
  {
    "Compound": "CC(=O)c1c(C)[nH]c(-c2nc3ccc(N4CCN(C)CC4)cc3[nH]2)c1-c1ccc(N(C)C)cc1",
    "Group": "inactive"
  },
  {
    "Compound": "O=C(NCCCO)c1cc(Cl)ccc1O",
    "Group": "inactive"
  },
  {
    "Compound": "c1ccc(CN2COc3c(ccc4c3OCN(Cc3ccccc3)C4)C2)cc1",
    "Group": "active"
  },
  {
    "Compound": "Cc1nc2ccccc2c(/C=C/c2ccc(Cl)cc2)c1C(=O)/C=C/c1ccc(C(F)(F)F)cc1",
    "Group": "active"
  },
  {
    "Compound": "C[As](C)SCC(COC(=O)C(Cl)c1ccccc1)OC(=O)C(Cl)c1ccccc1 (stereo not drawn)",
    "Group": "inactive"
  },
  {
    "Compound": "O=C1C=CC(=Nc2cc(Br)c(O)c(Br)c2)C=C1",
    "Group": "inactive"
  },
  {
    "Compound": "COc1cc(NCCCN=C(N)NC(N)=NC(C)C)c2ncccc2c1",
    "Group": "inactive"
  },
  {
    "Compound": "O=C(c1ccccc1)C(CN1CCCCC1)c1ccccc1 (stereo not drawn)",
    "Group": "inactive"
  },
  {
    "Compound": "CS(=O)(=O)CCc1cccc(C(=O)c2cnn(-c3ccc(F)cc3)c2N)c1",
    "Group": "inactive"
  },
  {
    "Compound": "O=C(Nc1ccc(Cl)c(Cl)c1)Nc1c(Oc2ccc(Cl)c(Cl)c2)ccc(Cl)c1S(=O)(=O)O",
    "Group": "inactive"
  },
  {
    "Compound": "CC(=O)C1=C(O)C=C2Oc3c(C(=O)/C=C/c4c(Cl)cccc4Cl)c(O)c(C)c(O)c3[C@]2(C)C1=O",
    "Group": "inactive"
  },
  {
    "Compound": "Nc1c(C(=O)Nc2cccc(F)c2)sc2nc3c(cc12)C(=O)CCC3",
    "Group": "inactive"
  },
  {
    "Compound": "[N-]=[N+]=NCCCCCC(=O)OC(C(=O)c1ccccc1)c1cccc(OCC(=O)NCCOCCOCCNC(=O)CCCC[C@@H]2SC[C@@H]3NC(=O)N[C@@H]32)c1 (stereo partly drawn)",
    "Group": "inactive"
  },
  {
    "Compound": "O=Nc1ccc(NO)c2ccccc12",
    "Group": "inactive"
  },
  {
    "Compound": "Cc1csc(/C=C/C(=O)c2nnn(-c3ccnc4c(C(F)(F)F)cccc34)c2C)c1",
    "Group": "inactive"
  },
  {
    "Compound": "COc1ccc2c(=O)cc(C(Cl)(Cl)Cl)oc2c1",
    "Group": "active"
  }
]

---

Tested on: RPMI-8226 leukemia
Protocol Details: NCI tumour cell line growth inhibition, 48 h
Measurement Kind: TGI

[
  {
    "Compound": "O=C(Nc1ccc(-n2ccc3c(NC(=O)c4ccccc4)ncnc32)cc1)Nc1ccc(Cl)c(Cl)c1",
    "Measurement Kind": "TGI",
    "Observed": "3.2 µM"
  },
  {
    "Compound": "NC(=O)NCCCC(NC(=O)OCCCCCCn1ccc(=O)[nH]c1=O)C(=O)O (configuration not stated)",
    "Measurement Kind": "TGI",
    "Observed": "> 100 µM"
  },
  {
    "Compound": "COc1ccc2c(=O)cc(C(Cl)(Cl)Cl)oc2c1",
    "Measurement Kind": "TGI",
    "Observed": "3.82 µM"
  },
  {
    "Compound": "COc1ccccc1C1ON=C(c2ccc([N+](=O)[O-])cc2)N1C12CC3CC(CC(C3)C1)C2 (configuration not stated)",
    "Measurement Kind": "TGI",
    "Observed": "> 100 µM"
  },
  {
    "Compound": "CCOc1ccc(N/C(=C(/C(Cl)=C(/Cl)N2CCCCC2)[N+](=O)[O-])n2nnc3ccccc32)cc1",
    "Measurement Kind": "TGI",
    "Observed": "> 100 µM"
  },
  {
    "Compound": "CCOC(=O)c1cc2c(cc1Cl)SC(N(c1ccc(OC)cc1)S(=O)(=O)c1ccc(Cl)cc1)=NS2(=O)=O",
    "Measurement Kind": "TGI",
    "Observed": "> 100 µM"
  },
  {
    "Compound": "C#CCSc1cc(Cl)c(C)cc1S(=O)(=O)Nc1nc2ccccc2o1",
    "Measurement Kind": "TGI",
    "Observed": "> 100 µM"
  },
  {
    "Compound": "O=C(c1ccccc1)c1ccc2[nH]c(-c3c(Cl)c(Cl)c(Cl)c(Cl)c3C(=O)N/N=C/c3cccc(Oc4ccccc4)c3)nc2c1",
    "Measurement Kind": "TGI",
    "Observed": "> 100 µM"
  },
  {
    "Compound": "CC1=C(c2ccccc2)NC(=S)C(C)C(c2ccccc2)=N1 (configuration not stated)",
    "Measurement Kind": "TGI",
    "Observed": "57.5 µM"
  },
  {
    "Compound": "CS(=O)(=O)CCc1cccc(C(=O)c2cnn(-c3ccc(F)cc3)c2N)c1",
    "Measurement Kind": "TGI",
    "Observed": "> 25 µM"
  },
  {
    "Compound": "O=C(Nc1ccncc1)C(=O)c1cn(S(=O)(=O)c2ccc(Cl)cc2)c2ccccc12",
    "Measurement Kind": "TGI",
    "Observed": "> 100 µM"
  },
  {
    "Compound": "COc1cc(NCCC2CCCCN2)c2ncccc2c1 (configuration not stated)",
    "Measurement Kind": "TGI",
    "Observed": "> 68.1 µM"
  },
  {
    "Compound": "c1ccc(CN2COc3c(ccc4c3OCN(Cc3ccccc3)C4)C2)cc1",
    "Measurement Kind": "TGI",
    "Observed": "> 100 µM"
  },
  {
    "Compound": "Cc1ccc(NC(=O)CC2Sc3ccccc3NC2=O)c(C)c1 (configuration not stated)",
    "Measurement Kind": "TGI",
    "Observed": "43.9 µM"
  },
  {
    "Compound": "O=c1[nH]nc(-c2ccccc2)n1/N=C/c1cccs1",
    "Measurement Kind": "TGI",
    "Observed": "> 100 µM"
  },
  {
    "Compound": "C/C(CC(O)(/C=N/O)c1ccccc1)=N/O (configuration not stated)",
    "Measurement Kind": "TGI",
    "Observed": "> 100 µM"
  },
  {
    "Compound": "CCOC(=O)C(Cc1ccc(OC(=O)c2ccc(OC)cc2)cc1)NC(=O)C(F)(F)F (configuration not stated)",
    "Measurement Kind": "TGI",
    "Observed": "> 100 µM"
  },
  {
    "Compound": "O=[N+]([O-])C(=C(N1CCOCC1)N1CCOCC1)/C(Cl)=C(\\Cl)Br",
    "Measurement Kind": "TGI",
    "Observed": "33.5 µM"
  },
  {
    "Compound": "O=C(CN1CCOCC1)c1ccc2c(c1)oc(=O)n2CCN1CCOCC1",
    "Measurement Kind": "TGI",
    "Observed": "> 100 µM"
  },
  {
    "Compound": "N#CC(=N)c1ncn(-c2ccc(N)cc2)c1N",
    "Measurement Kind": "TGI",
    "Observed": "> 100 µM"
  },
  {
    "Compound": "CCOC(=O)C1=CCOc2cc(N(C)C)ccc21",
    "Measurement Kind": "TGI",
    "Observed": "> 100 µM"
  },
  {
    "Compound": "N=c1ccn(O)cc1/C=C1/C(=O)Nc2ccccc21",
    "Measurement Kind": "TGI",
    "Observed": "> 100 µM"
  }
]
